target.system: His6-CRBN/DDB1 complex (UniProt Q96SW2)
protocol: AlphaScreen or HTRF; competitive TR-FRET ligand displacement assay against recombinant His6-CRBN/DDB1; KD from dose-titration of the ligand
Non-standard residues stand in square brackets, D forms with d. No end group written: not given here. *: point of attachment. epicN = C-terminal cyclic asparagine (aspartimide), (R)-epimer, epimer of cN, O=C1C[C@@H](N*)C(=O)N1; Fmoc = O=C(OCC1c2ccccc2-c2ccccc21)*
reported.endpoint: pKd
Entry type: numeric. Quantity: pKd, the -log10 of concentration in molar units.

Asked: If you can, please state the reported pKd value of Fmoc-GGGF[epicN] (pentapeptide; source: synthetic peptide) [Fmoc-GGGFepicN] .
Given back: 5.54

Data provenance is paper PMC12117711.
